Field: IC50. Provide a value for each of the molecules that follow.
Molecular target: Methionine aminopeptidase (Escherichia coli K-12)
Sequence (P0AE18 whole entry): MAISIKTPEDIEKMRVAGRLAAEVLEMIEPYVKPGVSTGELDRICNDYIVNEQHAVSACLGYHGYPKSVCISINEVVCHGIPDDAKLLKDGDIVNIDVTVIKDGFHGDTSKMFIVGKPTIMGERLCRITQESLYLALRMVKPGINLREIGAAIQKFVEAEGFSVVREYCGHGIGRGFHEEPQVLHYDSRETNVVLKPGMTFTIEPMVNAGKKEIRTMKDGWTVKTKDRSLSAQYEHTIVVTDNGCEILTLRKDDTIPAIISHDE
Assay: Inhibitory concentration required against Escherichia coli MetAP1 (150 nM)

>>> df
                              molecule                               test_target  result
0   O=C(Nc1nccs1)c1ncsc1Cc1ccc(F)cc1Cl  Methionine aminopeptidase (Escherichia coli K-12)   82 nM
1      O=C(Nc1nccs1)c1ncsc1NC(=O)C1CC1  Methionine aminopeptidase (Escherichia coli K-12)   42 nM
2  CCOC(=O)CC(=O)Nc1scnc1C(=O)Nc1nccs1  Methionine aminopeptidase (Escherichia coli K-12)   66 nM
3            CCCCCc1scnc1C(=O)Nc1nccs1  Methionine aminopeptidase (Escherichia coli K-12)  160 nM
4               CCc1scnc1C(=O)Nc1nccs1  Methionine aminopeptidase (Escherichia coli K-12)  180 nM

Provide the reported IC50 of each entry below, same order.
1. COCC(=O)Nc1scnc1C(=O)Nc1nccs1
2. CC(C)=CCCC(C)Cc1scnc1C(=O)Nc1nccs1 (stereo unspecified)
3. Cc1scnc1C(=O)Nc1nccs1
4. COc1ccccc1C(=O)Nc1scnc1C(=O)Nc1nccs1

1: 92 nM; 2: 170 nM; 3: 180 nM; 4: 190 nM

----------
Field: pIC50. Provide a value for each of the molecules that follow.
Target: Methionine aminopeptidase 1 (Saccharomyces cerevisiae S288c)
Sequence (Q01662 whole entry): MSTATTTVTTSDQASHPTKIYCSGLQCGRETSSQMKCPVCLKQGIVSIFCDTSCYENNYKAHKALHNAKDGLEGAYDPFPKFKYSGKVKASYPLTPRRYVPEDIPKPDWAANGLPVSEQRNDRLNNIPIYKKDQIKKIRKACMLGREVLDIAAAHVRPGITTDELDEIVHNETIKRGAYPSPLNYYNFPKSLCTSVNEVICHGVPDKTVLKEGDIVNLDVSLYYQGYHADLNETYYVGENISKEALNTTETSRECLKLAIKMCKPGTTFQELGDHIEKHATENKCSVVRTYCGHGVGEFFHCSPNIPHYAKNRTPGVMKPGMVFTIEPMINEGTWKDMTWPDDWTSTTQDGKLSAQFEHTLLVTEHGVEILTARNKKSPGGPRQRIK
Give bare numbers, as −log10 of the molar value.

Examples with answers:
                       structure_smiles                               test_target  property_label  numeric_readout
0        O=C(Nc1nccs1)c1ncsc1CCc1ccccc1  Methionine aminopeptidase 1 (Saccharomyces cerevisiae S288c)           pIC50             6.18
1   CC(C)=CCC(=O)Nc1cccnc1C(=O)Nc1nccs1  Methionine aminopeptidase 1 (Saccharomyces cerevisiae S288c)           pIC50             6.85
2  COc1ccccc1C(=O)Nc1scnc1C(=O)Nc1nccs1  Methionine aminopeptidase 1 (Saccharomyces cerevisiae S288c)           pIC50             5.48
3   O=C(CN1CCOCC1)Nc1scnc1C(=O)Nc1nccs1  Methionine aminopeptidase 1 (Saccharomyces cerevisiae S288c)           pIC50             5.33
4      O=C(Nc1nccs1)c1ncsc1NC(=O)C1CCC1  Methionine aminopeptidase 1 (Saccharomyces cerevisiae S288c)           pIC50             6.60
5    CC(=O)OCC(=O)Nc1scnc1C(=O)Nc1nccs1  Methionine aminopeptidase 1 (Saccharomyces cerevisiae S288c)           pIC50             5.58

Next, consider the following molecule.
Reported pIC50 for O=C(Nc1nccs1)c1ncsc1-c1ccccc1 : what is it? 5.47
